Quick reference: half-life at 0.5 μM of the listed items.
- EXPERIMENTAL PROTOCOL: in vitro
- Format: in vitro ADME
- REPORTED CONDITIONS: human, microsomes, Average half-life

Here is how some compounds turned out for half-life at 0.5 μM.
COMPOUND	half-life at 0.5 μM
C[C@@H]([C@H](NC(=O)[C@H](CC1CCCCC1)NC(=O)N[C@@H](Cc1c[nH]c2ccccc12)C(=O)O)C(=O)NC[C@H]1C[C@@H](O)[C@H](n2ccc(=O)[nH]c2=O)O1)N(C)C(=O)[C@@H](N)Cc1cccc(O)c1	2.9 h
C[C@@H]([C@H](NC(=O)[C@H](CC1CCCCC1)NC(=O)N[C@@H](Cc1c[nH]c2ccccc12)C(=O)O)C(=O)NC[C@H]1C[C@@H](O)[C@H](n2ccc(=O)[nH]c2=O)O1)N(C)C(=O)CN	> 4.12 h

Query compound follows.
// query Requested read-out: half-life at 0.5 μM. Entry: `C[C@@H]([C@H](NC(=O)[C@H](Cc1ccc2ccccc2c1)NC(=O)N[C@@H](Cc1c[nH]c2ccccc12)C(=O)O)C(=O)NC[C@H]1C[C@@H](O)[C@H](n2ccc(=O)[nH]c2=O)O1)N(C)C(=O)CN`
// result > 4.12 h
